- procedure.details: Cytotoxicity against human MRC5 cells assessed as reduction in cell viability by SRB assay
Where a name gives a salt, the structure may show the parent alone.
measure: IC50 (µM)
One number for each entry, in µM.

Known results for compounds:
compound	unit.info	IC50
O=C(CCCCCCN1C(=O)Cc2cc(Br)ccc21)NO	µM	30.1
O=C(/C=C/c1ccc(CN2C(=O)Cc3cc(Br)ccc32)cc1)NO	µM	48.7
O=C(NO)c1ccc(CN2C(=O)Cc3cc(Br)ccc32)cc1	µM	21.4
O=C(CCCCCCN1C(=O)Cc2cc(F)ccc21)NO	µM	57.3
COc1cccc2c1C(=O)c1c(O)c3c(c(O)c1C2=O)C[C@@](O)(C(=O)CO)C[C@@H]3O[C@H]1C[C@H](N)[C@H](O)[C@H](C)O1 [DOXORUBICIN HYDROCHLORIDE]	µM	3.93

Hi team, please reply with IC50 for each item in this list.
1. O=C(/C=C/c1ccc(CN2C(=O)Cc3cc(Cl)ccc32)cc1)NO
2. O=C(CCCCCCN1C(=O)Cc2ccccc21)NO
3. COc1ccc2c(c1)CC(=O)N2Cc1ccc(C(=O)NO)cc1
4. COc1ccc2c(c1)CC(=O)N2CCCCCCC(=O)NO
5. O=C(CCCCCCN1C(=O)Cc2cc(Cl)ccc21)NO

66.4
17.6
41.4
24.6
23.1

* * *

- tested.target: Histone deacetylase
- procedure.details: Inhibition of HDAC in human HeLa cells nuclear extract
- Assay type: subcellular, Nucleus
Please respond with reported IC50 for every item in the list.
One number for each entry, in µM.

O=C(/C=C/c1ccc(CN2C(=O)Cc3cc(Br)ccc32)cc1)NO 0.698

Let us move to another entry and its IC50.
Please tell me: IC50 of O=C(NO)c1ccc(CN2C(=O)Cc3cc(Cl)ccc32)cc1 , system Histone deacetylase?
0.491

* * *

Field: IC50. Provide a value for each of the compounds that follow.
- procedure.details: Cytotoxicity against human MRC5 cells assessed as reduction in cell viability by SRB assay

O=C(NO)c1ccc(CN2C(=O)Cc3cc(Cl)ccc32)cc1 > 100 µM
O=C(NO)c1ccc(CN2C(=O)Cc3ccccc32)cc1 > 100 µM
O=C(/C=C/c1ccc(CN2C(=O)Cc3ccccc32)cc1)NO > 100 µM
O=C(/C=C/c1ccc(CN2C(=O)Cc3cc(F)ccc32)cc1)NO > 100 µM
O=C(NO)c1ccc(CN2C(=O)Cc3cc(F)ccc32)cc1 > 100 µM

Lab note: next compound to report on.
# input compound: COc1ccc2c(c1)CC(=O)N2Cc1ccc(/C=C/C(=O)NO)cc1 ; wanted: its IC50
> 100 µM

Where do the numbers come from? From ChEMBL document CHEMBL6109099.
